# Test system: L1210 leukemia ip in BDF1 mice, survival T/C
# assay notes: NCI In Vivo Anticancer Drug Screen. Data for tumor model L1210 Leukemia (intraperitoneal) in B6D2F1 (BDF1) mice
# condition notes: endpoint: mean survival time; dose: 100.0 mg/kg/injection; schedule: Q04DX003 (ip); vehicle: saline with Tween-80; higher = longer survival
Inconclusive results and toxic doses are left out.
Consider the following compounds; for each one, report its T/C.

-- ask Need T/C of "O=C(OC(c1ccccc1)c1ccccc1)C(=O)c1ccccc1" , thanks.
-- reply 92 % of control

-- ask // repeat for "O=S1c2ccccc2Sc2ccccc21" and report
-- reply 103 % of control

-- ask // repeat for "CCOC(=O)C(C)(C(=O)OCC)c1cc(OC)c(C)cc1Br" and report
-- reply 103 % of control

-- ask // repeat for "COC(=O)/C(Cl)=C(\Cl)C(=O)OC" and report
-- reply 102 % of control

-- ask // repeat for "Cc1ccc(N=Cc2cc(Br)cc(Br)c2O)cc1.Cc1ccc(N=Cc2cc(Br)cc(Br)c2O)cc1.[Co]" and report
-- reply 100 % of control

-- ask // repeat for "Cc1c(Cl)cccc1NC(=O)NCCc1ccccc1" and report
-- reply 100 % of control

###

Consider the following compounds; for each one, report its T/C.
# System: L1210 leukemia ip in BDF1 mice, survival T/C
# assay notes: NCI In Vivo Anticancer Drug Screen. Data for tumor model L1210 Leukemia (intraperitoneal) in B6D2F1 (BDF1) mice
# condition notes: endpoint: mean survival time; dose: 100.0 mg/kg/injection; schedule: Q01DX009 (ip); vehicle: gum acacia; higher = longer survival
Toxic doses and inconclusive results are not listed.

-- ask Need T/C of "COc1ccc(Cl)cc1NC(=O)OCCCc1ccccc1" , thanks.
-- reply 108 % of control

-- ask // repeat for "O=C(Nc1ccc(Nc2ccccc2)cc1)c1ccc(F)cc1" and report
-- reply 91 % of control

-- ask // repeat for S=C1NC(c2cccc(Cl)c2)N2C(=S)NC(c3cccc(Cl)c3)N12 (centres undefined) and report
-- reply 101 % of control

-- ask // repeat for "CC(=O)CC(=O)N1CCCCCC1" and report
-- reply 93 % of control

###

# System: L1210 leukemia ip in BDF1 mice, survival T/C
# assay notes: NCI In Vivo Anticancer Drug Screen. Data for tumor model L1210 Leukemia (intraperitoneal) in B6D2F1 (BDF1) mice
# condition notes: endpoint: mean survival time; dose: 200.0 mg/kg/injection; schedule: Q01DX001 (ip); vehicle: saline
Inconclusive results and toxic doses are left out. Cut-off read from the data, not from the text of the source: active = T/C of 150% or more; inactive = T/C below 125%.
Response enum: class 1 = active, class 0 = inactive

-- ask Hello, I am checking results. What call was entered for "CC(C)(Br)C(=O)C(Br)Br" ?
-- reply class 0

-- ask // repeat for "C=C(COC(C)(C)C)CN(C)C" and report
-- reply class 0

-- ask // repeat for CC(C)CCC1(C)CC(=O)Nc2ccccc21 (stereo not drawn) and report
-- reply class 0

-- ask // repeat for "O=CO" and report
-- reply class 0

-- ask // repeat for CC(C)C(O)CC(=O)NN (stereo not drawn) and report
-- reply class 0

-- ask // repeat for "CC(=O)OCC/C(=C/c1cc2ccccc2c2ccccc12)[N+](=O)[O-]" and report
-- reply class 0

-- ask // repeat for "COc1cc(C=Nc2cccc(F)c2)ccc1N(CCCl)CCCl" and report
-- reply class 1

-- ask // repeat for "CSc1n[n+](-c2ccccc2)cs1" and report
-- reply class 0
